Listed here: items and their measured fraction signal.
- Experiment notes: IRF3 reporter activation in THP-1 macrophages, cell-based, PMA-stimulated THP-1, luminescence (AID 1053176)
- Settings: PMA-differentiated THP-1, IRF3 reporter luminescence; active compounds read high
Output spec: single numeric token, no unit.

These recorded examples may help you get a feel for the data.
Cc1nc2sc3c(N)ncnc3c2c(C)c1C
-0.003
Cn1cc(C2=C(c3cn(C)c4cc(Cl)ccc34)C(=O)NC2=O)c2ccccc21
-0.009
CN1CCN(c2ccc(Nc3nc(N)c(C(=O)c4ccc5c(c4)OCCO5)s3)cc2)CC1
-0.018
Cc1ccc(C(=O)NC2CCC2)cc1-c1ccc(C(=O)NCC2CC2)cc1
-0.002
NS(=O)(=O)c1cccc(N=Cc2c(O)[nH]c3ccccc23)c1
-0.0005

QUERY: Look up and report measured fraction signal for this entry: `Cc1ccc2c(-c3ccnc(Nc4cccc(C(F)(F)F)c4)n3)c(-c3ccccc3)nn2n1`
RESULT: -0.0065

###

- Experiment notes: Cy5 fluorescence interference with SSB-bound oligo, artefact control for HCV NS3 helicase inhibitor project, biochemical, NIH Clinical Collection, E. coli SSB (AID 743268)
Activity calls are given as the source filed them. No rule for the calls is given here.
Reported fluorescence ratio values are given for each entry in this list.

Cc1nc2ccccn2c(=O)c1CCN1CCC(C(=O)c2ccc(F)cc2)CC1
0.95 (inactive)

QUERY: Input `CC(=O)Nc1nnc(S(N)(=O)=O)s1` , output reported fluorescence ratio.
RESULT: 1.01 (inactive)

QUERY: Determine its reported fluorescence ratio: `NC(=O)N1c2ccccc2C=Cc2ccccc21`
RESULT: 1.03 (inactive)

QUERY: // fetch fluorescence ratio given entry `N[C@@H](Cc1cc(I)c(Oc2cc(I)c(O)c(I)c2)c(I)c1)C(=O)O`
RESULT: 0.87 (inactive)

QUERY: Retrieve fluorescence ratio measured for `CO[C@@]1(NC(=O)Cc2cccs2)C(=O)N2C(C(=O)O)=C(COC(N)=O)CS[C@@H]21` and print it.
RESULT: 1.06 (inactive)

QUERY: Provide only the value of recorded fluorescence ratio for `COc1ccc([C@@H]2Sc3ccccc3N(CCN(C)C)C(=O)[C@@H]2OC(C)=O)cc1`
RESULT: 0.95 (inactive)

###

A collection of molecules and their measured viability decrease (inhibition)
- Experiment notes: CellTiter-Glo luminescent readout of SW480 viability loss, NPC library primary (AID 1117343)
- Settings: CellTiter-Glo luminescence; at 20 µM (top of the series)
Express it in %; write the number only.

Previously resolved entries follow.
CC(C)(C)NCC(O)COc1cccc2c1C[C@H](O)[C@H](O)C2 (some centres not stated)
2.8
C/C=C/C(=O)N(CC)c1ccccc1C
19.5
CCCSS/C(CCO)=C(\C)N(C=O)Cc1cnc(C)nc1N
45.4
CC(C)(C)NCC(O)c1cc(O)cc(O)c1 (configuration not stated)
20.2
CCOC(=O)[C@H](CCc1ccccc1)N[C@@H](C)C(=O)N1Cc2ccccc2C[C@H]1C(=O)O
28.5
c1ccc(-n2cnnn2)cc1
10.4
CC(C)(C)C1CCC(CC2=C(O)c3ccccc3C(=O)C2=O)CC1 (configuration not stated)
140
O=[N+]([O-])c1ccc(Oc2ccc(N=C=S)cc2)cc1
95.7
O=C(CCC1CCN(Cc2ccccc2)CC1)c1ccc2c(c1)NCCCC2
93.9
Nc1nc2c(ncn2COCCO)c(=O)[nH]1
23.2

QUERY: Provide only the value of recorded viability decrease (inhibition) for `Oc1ccccc1C=NCc1ccccc1`
RESULT: 13.6

QUERY: Read off the recorded viability decrease (inhibition) for `Oc1cc(O)cc(O)c1`
RESULT: 21.1

###

- Experiment notes: SU-DIPG-XXV glioma cell viability, MIPE5.0 library, qHTS (AID 1347068);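 as to IC50: cells exposed to compound for 48 hours before viability readout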
Records with an inconclusive call do not appear. Active and inactive are the calls of the source. The limit is not given here; nearly all actives have IC50 up to about 30 µM.
Could you please pick one outcome from this set? YES for active, NO for inactive

QUERY: I would be grateful if you could indicate the recorded call for `CC[C@H]1CN2CCc3cc(OC)c(OC)cc3[C@@H]2C[C@@H]1C[C@H]1NCCc2cc(OC)c(OC)cc21` .
RESULT: YES

QUERY: How was `Cc1ccc(-c2cc(C(F)(F)F)nn2-c2ccc(S(N)(=O)=O)cc2)cc1` classified in this test?
RESULT: NO

QUERY: Lab log entry: `CCc1nc(N)nc(N)c1-c1ccc(Cl)cc1` — outcome as called in the assay?
RESULT: NO

QUERY: Could you check what this test reported for `O=c1[nH]cnc2[nH]ncc12` ?
RESULT: NO

QUERY: Could you kindly confirm the outcome this assay logged for CC1=C(CC(=O)O)c2cc(F)ccc2/C1=C\c1ccc(S(C)=O)cc1 (stereo unspecified) ?
RESULT: NO

QUERY: Recorded test outcome, item CC(C)Cc1ccc(C(C)C(=O)O)cc1 (stereo unspecified)
RESULT: NO

###

- Tested on: Neuropilin-2 / VEGF-C interaction (human)
- Experiment notes: inhibitors of NRP2–VEGF-C binding, biochemical, microplate binding format, z-score (AID 743281)
- Settings: microplate NRP2/VEGF-C binding assay; active compounds read low
Decide using z-score alone. Strictly below -0.1: true. Equal to or above -0.1: false.

Completed entries (count: 5):
C[C@H](CCC(=O)O)[C@H]1CC[C@H]2[C@@H]3C(=O)C[C@@H]4CC(=O)CC[C@]4(C)[C@H]3CC(=O)[C@]12C
false
Oc1ccc(/C=C/c2cc(O)cc(O)c2)cc1
true
CC(C)Oc1ccc2c(=O)c(-c3ccccc3)coc2c1
false
CC1(C)O[C@@H]2[C@@H](CO[C@@]3(COS(N)(=O)=O)OC(C)(C)O[C@@H]23)O1
true
C/C=C/C(=O)N(CC)c1ccccc1C
true

QUERY: For `N[C@@H](C(=O)N[C@@H]1C(=O)N2C(C(=O)O)=C(Cl)CS[C@H]12)c1ccccc1` , is the recorded z-score below the cut-off of -0.1?
RESULT: true

QUERY: Does the reported z-score of the following compound sit strictly below -0.1? `Cc1nc2ccccn2c(=O)c1CCN1CCC(C(=O)c2ccc(F)cc2)CC1`
RESULT: true

QUERY: Please check: z-score for `CCCCC1=NC2(CCCC2)C(=O)N1Cc1ccc(-c2ccccc2-c2nn[nH]n2)cc1` , strictly under -0.1 or not?
RESULT: false

QUERY: In plain terms, does `Cc1onc(-c2ccccc2)c1-c1ccc(S(N)(=O)=O)cc1` come in under -0.1 for z-score?
RESULT: false

QUERY: Just wondering, is z-score of `Cc1cccc(Nc2ccncc2S(=O)(=O)NC(=O)NC(C)C)c1` below -0.1?
RESULT: false

###

Item-by-item account of insulin secretion stimulation
- Experiment notes: stimulators of insulin release from INS-1E, primary screen, cell-based, 5 mM glucose, NPC library (AID 1117329)
- Settings: rat INS-1E insulin secretion, at 10 µM, active compounds read high
Write the number in % without appending the unit.

Please review the entries below; each comes with its answer.
O=[N+]([O-])c1nccn1CO[C@@H](CO)[C@H](O)CO
1.45
COc1cc(NC(C)CCCN)c2ncccc2c1 (stereo unspecified)
0.4
O=C1C(CCS(=O)c2ccccc2)C(=O)N(c2ccccc2)N1c1ccccc1 (stereo unspecified)
2.6
NCc1ccc(S(N)(=O)=O)cc1
-0.5
CCOc1cc(OCC)c(C(=O)CCC(=O)O)cc1OCC
0.5
CC(=O)O[C@H]1CC[C@@]2(C)C(=CC[C@@H]3[C@@H]2CC[C@]2(C)C(C(C)=O)=CC[C@@H]32)C1
0.2

QUERY: Indicate the recorded insulin secretion stimulation value for this compound: `NNC(=O)c1ccncc1`
RESULT: -0.1

QUERY: Return insulin secretion stimulation for the following compound: `NCCCC[C@H](N)C(=O)O`
RESULT: -2.1

QUERY: Write down insulin secretion stimulation measured for item `CN(C)C(=O)Oc1ccc[n+](C)c1`
RESULT: 0.95

QUERY: # return recorded insulin secretion stimulation for entry `CC(=O)Oc1ccc(C2(c3ccc(OC(C)=O)cc3)Oc3ccccc3NC2=O)cc1`
RESULT: 19.9

QUERY: Specify insulin secretion stimulation for `C[C@@H]1CCN(C(=O)[C@H](CCCN=C(N)N)NS(=O)(=O)c2cccc3c2NC[C@H](C)C3)[C@@H](C(=O)O)C1` and stop.
RESULT: 1.35

###

- Experiment notes: growth inhibition of GSK3B-pretreated HCT116 cells – cell-based, CellTiter-Glo, 0.2 to 20 µM (AID 1117336)
- Settings: HCT116 viability after GSK3B inhibitor, at 20 µM, active compounds read high
A collection of compounds and their measured viability decrease
Your answer is read as %, so omit the unit and give the number.

Some compounds with known viability decrease results, for comparison:
CC(C)=CCOc1ccc(/C=C/C(=O)c2ccc(OCC=C(C)C)cc2OCC(=O)O)cc1
99.2
CC[C@H](C)C(=O)O[C@H]1C[C@H](O)C=C2C=C[C@H](C)[C@H](CC[C@@H](O)C[C@@H](O)CC(=O)O)[C@H]21
-15.6
Cc1c(C(=O)NCCO)[n+](=O)c2ccccc2n1[O-]
-6.4
CC(=O)/C=C/C=C1/C2CCC(C2)C1(C)C (stereo not given)
-80

QUERY: Look up viability decrease of `CC(=O)[C@H]1CC[C@H]2[C@@H]3C[C@H](C)C4=CC(=O)CC[C@]4(C)[C@H]3[C@@H](O)C[C@]12C` and report it.
RESULT: -48.8

QUERY: Give the reported value of viability decrease for this record: `COc1ccc2cc1Oc1cc3c(cc1OC)CC[N+](C)(C)[C@H]3Cc1ccc(cc1)Oc1c(OC)c(OC)cc3c1[C@@H](C2)[N+](C)(C)CC3`
RESULT: 13.2

QUERY: Using the record for `OCc1ccc(Cl)cc1Cl` , state its measured viability decrease.
RESULT: 1.6

QUERY: Given the compound `CCOc1ncc(F)c(=O)[nH]1` , write its reported viability decrease.
RESULT: 0.7

QUERY: Indicate the recorded viability decrease value for this compound: `C=CCN1CCc2nc(N)sc2CC1`
RESULT: -5.1

QUERY: Quickly give me recorded viability decrease for CC(=O)O[C@@H]1CC2C3CCc4cc(OC(=O)c5ccccc5)ccc4C3CCC2(C)[C@H]1OC(C)=O (stereo not given in full)
RESULT: -39.7
